Target: Human immunodeficiency virus type 1 reverse transcriptase (Human immunodeficiency virus 1)
Test: Tested for the inhibition of mutant type (Cys181) HIV-1 (IIIB) RT
readout.label: pIC50
Note: pIC50 values are expressed as the negative base-10 logarithm of concentration in M.

Guide cases for pIC50, answers given:
> print(dat)
                           structure.smiles  quantitative.readout
1  CN(C)c1ccc(F)c(CCNC(=S)Nc2ccc(Cl)cn2)c1F                  6.72
2  CN(C)c1cc(F)c(CCNC(=S)Nc2ccc(Cl)cn2)c(F)c1                  6.89
3    CCOc1ccc(F)c(CCNC(=S)Nc2ccc(Br)cn2)c1F                  7.70
4    COCc1ccc(F)c(CCNC(=S)Nc2ccc(Br)cn2)c1F                  7.00
5  CCOc1ccc(F)c(CC/N=C(\S)Nc2ccc(Br)cn2)c1C#N                  6.68
6  COc1ccc(F)c(CC/N=C(\S)Nc2ccc(Br)cn2)c1C#N                  7.30
7  COc1ccc2[nH]cc(CC/N=C(\S)Nc3ccc(Br)cn3)c2c1                  5.60
8   CCOc1ccc(OC)c(CCNC(=S)Nc2ccc(Cl)cn2)c1F                  7.47

stdin: Identify the measured pIC50 of COc1ccc(F)c(CCNC(=S)Nc2ccc(C#N)cn2)c1C#N for Human immunodeficiency virus type 1 reverse transcriptase (Human immunodeficiency virus 1).
stdout: 7.30

====

Molecular target: Human immunodeficiency virus type 1 reverse transcriptase (Human immunodeficiency virus 1)
Assay: Tested for the inhibition of wild type HIV-1 (IIIB) RT
pIC50: −log10 of the molar value.
Use 1.0 when the recorded pIC50 is no lower than 8; use 0.0 when it is lower.

> print(dat)
                           structure.smiles  label.class
1    CCOc1ccc(F)c(CCNC(=S)Nc2ccc(Br)cn2)c1F          1.0
2  CN(C)c1cc(F)c(CCNC(=S)Nc2ccc(Cl)cn2)c(F)c1          0.0
3        S=C(NCCn1nc2ccccc2n1)Nc1ccc(Br)cn1          1.0
4     COc1ccc(F)c(F)c1CCNC(=S)Nc1ccc(Br)cn1          1.0
5     S=C(NCCc1c[nH]c2ccccc12)Nc1ccc(Br)cn1          0.0

stdin: // inclusive: pIC50 at least 8? input: COCc1ccc(F)c(CCNC(=S)Nc2ccc(Br)cn2)c1F
stdout: 1.0

stdin: // inclusive: pIC50 at least 8? input: O=C1c2ccccc2C(=O)N1CCNC(=S)Nc1ccc(Cl)cn1
stdout: 1.0

stdin: // inclusive: pIC50 at least 8? input: CCOc1c(Cl)cc(F)c(CCNC(=S)Nc2ccc(Br)cn2)c1Cl
stdout: 0.0

====

Target: Human immunodeficiency virus type 1 reverse transcriptase (Human immunodeficiency virus 1, UniProt Q72547)
Assay: Tested for the inhibition of mutant type (Cys181) HIV-1 (IIIB) RT
One threshold, 50 nM, splits the recorded IC50 values: lower ones are condition met, equal or higher ones are condition not met.

> print(dat)
                            structure.smiles        label.class
 1    CCOc1ccc(F)c(F)c1CCNC(=S)Nc1ccc(Br)cn1      condition met
 2  CCOc1ccc(Cl)c(CC/N=C(\S)Nc2ccc(Br)cn2)c1F      condition met
 3  N#Cc1ccc(F)c(CC/N=C(\S)Nc2ccc(Cl)cn2)c1F  condition not met
 4  CCOc1c(Cl)cc(F)c(CCNC(=S)Nc2ccc(Br)cn2)c1Cl  condition not met
 5       CCOc1cccc(F)c1CCNC(=S)Nc1ccc(Br)cn1      condition met
 6          Cn1cccc1CC/N=C(\S)Nc1ccc(C#N)cn1  condition not met
 7     COc1ccc(F)c(CCNC(=S)Nc2ccc(Br)cn2)c1F  condition not met
 8  O=C1c2ccccc2C(=O)N1CCNC(=S)Nc1ccc(Cl)cn1  condition not met
 9     S=C(NCCc1c[nH]c2ccccc12)Nc1ccc(Br)cn1  condition not met
10  O=C1c2c(Cl)ccc(Cl)c2C(=O)N1CCNC(=S)Nc1ccc(Cl)cn1      condition met

stdin: Lab note: IC50 threshold 50 nM. Does this compound come in strictly under it? COc1ccc(F)c(CCNC(=S)Nc2ccc(Br)cn2)c1OC
stdout: condition not met

stdin: Lab note: IC50 threshold 50 nM. Does this compound come in strictly under it? N#Cc1ccoc1CCNC(=S)Nc1ccc(Cl)cn1
stdout: condition not met

stdin: Lab note: IC50 threshold 50 nM. Does this compound come in strictly under it? Fc1cc(F)c(CCNC(=S)Nc2ccc(Cl)cn2)c(F)c1
stdout: condition not met

stdin: Lab note: IC50 threshold 50 nM. Does this compound come in strictly under it? COc1ccc(OC)c(CCNC(=S)Nc2ccc(Cl)cn2)c1F
stdout: condition not met

stdin: Lab note: IC50 threshold 50 nM. Does this compound come in strictly under it? CN(C)c1ccc(F)c(CCNC(=S)Nc2ccc(Br)cn2)c1F
stdout: condition not met

====

This section presents molecules with their documented log10 IC50 values.
Molecular target: Human immunodeficiency virus type 1 reverse transcriptase (Human immunodeficiency virus 1, UniProt Q72547)
Assay: Tested for the inhibition of mutant type (Ile100) HIV-1 (IIIB) RT
Field: value | Transform: log10 | Quantity: IC50 | Unit: nM

Guide cases for log10 IC50, answers given:
> print(dat)
                           structure.smiles  quantitative.readout
1  COc1ccc(F)c(CCNC(=S)Nc2ccc(C#N)cn2)c1C#N                  1.78
2  CCOc1ccc(Cl)c(CC/N=C(\S)Nc2ccc(Br)cn2)c1F                  1.95
3    CCOc1ccc(F)c(CCNC(=S)Nc2ccc(I)cn2)c1Cl                  2.62
4   CCOc1ccc(F)c(CCNC(=S)Nc2ccc(Br)cn2)c1Cl                  2.28
5    CCOc1ccc(F)c(F)c1CCNC(=S)Nc1ccc(Br)cn1                  1.30
6             Cn1cccc1CCNC(=S)Nc1ccc(Cl)cn1                  3.43
7    COc1ccc(OC)c(CCNC(=S)Nc2ccc(Cl)cn2)c1F                  1.90
8  N#Cc1ccc(F)c(CC/N=C(\S)Nc2ccc(Cl)cn2)c1F                  2.60

stdin: log10 IC50 for CN(C)c1ccc(F)c(CCNC(=S)Nc2ccc(Cl)cn2)c1F ?
stdout: 3.28

stdin: log10 IC50 for COc1ccc(F)c(CCNC(=S)Nc2ccc(Br)cn2)c1F ?
stdout: 2.94

====

Biological target: Human immunodeficiency virus type 1 reverse transcriptase (Human immunodeficiency virus 1)
Test: Tested for the inhibition of mutant type (Ile100) HIV-1 (IIIB) RT
pIC50: −log10 of the molar value.
Use satisfied when the recorded pIC50 is no lower than 6; use not satisfied when it is lower.

Examples with answers:
> print(dat)
                           structure.smiles  label.class
1  CCOc1c(Cl)cc(F)c(CCNC(=S)Nc2ccc(Br)cn2)c1Cl    satisfied
2   CCOc1ccc(OC)c(CCNC(=S)Nc2ccc(Cl)cn2)c1F    satisfied
3  COc1ccc(F)c(CC/N=C(\S)Nc2ccc(Br)cn2)c1C#N    satisfied
4  CN(C)c1ccc(CC/N=C(\S)Nc2ccc(Br)cn2)c(F)c1C#N    satisfied
5    COc1ccc(F)c(CCNC(=S)Nc2ccc(Br)cn2)c1OC    satisfied

stdin: // inclusive: pIC50 at least 6? input: Fc1cccc(F)c1CCNC(=S)Nc1ccc(Br)cn1
stdout: satisfied

stdin: // inclusive: pIC50 at least 6? input: CCOc1cccc(F)c1CCNC(=S)Nc1ccc(Br)cn1
stdout: satisfied

stdin: // inclusive: pIC50 at least 6? input: Cn1cccc1CC/N=C(\S)Nc1ccc(C#N)cn1
stdout: not satisfied

stdin: // inclusive: pIC50 at least 6? input: CCOc1ccc(OCC)c(CCNC(=S)Nc2ccc(Br)cn2)c1
stdout: not satisfied

====

Biological target: Human immunodeficiency virus type 1 reverse transcriptase (Human immunodeficiency virus 1, UniProt Q72547)
Experiment: Tested for the inhibition of mutant type (Cys181) HIV-1 (IIIB) RT
One threshold, 100 nM, splits the recorded IC50 values: lower ones are True, equal or higher ones are False.

Examples with answers:
> print(dat)
                                   compound  label.class
1  CCOc1ccc(F)c(CCNC(=S)Nc2ccc(C#N)cn2)c1Cl         True
2  CCc1cc(NCc2nc3c(Cl)ccc(Cl)c3o2)c(O)nc1C [L-697661]        False
3  COc1ccc(F)c(CC/N=C(\S)Nc2ccc(Cl)cn2)c1C#N        False

Please turn your attention to the following entry.
stdin: Lab note: IC50 threshold 100 nM. Does this compound come in strictly under it? CCOc1ccc(F)c(CCNC(=S)Nc2ccc(I)cn2)c1Cl
stdout: False
